biological target: HLA-A*31:01; assay: IEDB peptide-MHC binding, purified MHC/competitive/radioactivity; filed as Kd, often an IC50 or EC50 that approximates it; bounds were set here for any values at or beyond the usual limits of such assays; conditions: source organism: Dengue virus 3 Singapore/8120/1995
pKd: −log10 of the molar value.
measureName: pKd

1. SQLAKRFSR 8.68

###

biological target: HLA-A*02:06; assay: IEDB peptide-MHC binding, purified MHC/competitive/radioactivity; filed as Kd, often an IC50 or EC50 that approximates it; bounds were set here for any values at or beyond the usual limits of such assays; settings: source organism: Dengue virus 2 Jamaica/1409/1983
measureName: Kd (nM)

1. VLNPYMPSV 6.19
2. YQLAVTIMA 19.8
3. FQRALIFIL 16.9
